system tested: T1, Anti-CD28 Fab (SEQ ID NOs: 696, 697)
T1 construct: Biotinylated and captured on neutravidin coated plates in the phage ELISA
T1 sequence (VH, as listed by the source, chain 1 of 2): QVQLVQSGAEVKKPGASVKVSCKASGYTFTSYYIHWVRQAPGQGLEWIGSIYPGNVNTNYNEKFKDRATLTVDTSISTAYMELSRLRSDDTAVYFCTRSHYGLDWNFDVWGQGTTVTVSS
T1 sequence (VL, as listed by the source, chain 2 of 2): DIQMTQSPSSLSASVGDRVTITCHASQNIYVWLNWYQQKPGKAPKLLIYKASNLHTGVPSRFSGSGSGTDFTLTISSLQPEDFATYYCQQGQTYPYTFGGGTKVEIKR
method summary: phage binding ELISA, clonal phage on biotinylated anti-CD28 Fab captured on neutravidin plates;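 further: crude clonal phage supernatants added to wells pretreated with CD28 antigen or blocking buffer only, bound phage detected by HRP-linked anti-M13 antibody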
Kindly supply the reported Anti-CD28 Fab (SEQ ID NOs: 696, 697) signal values for the records listed here.
The reply should be a number, written without any unit.

Asked: For YCDGHLEEYMVKCM (Peptide-87 library clone, tested as clonal phage (peptide fused to pIII)) [Phage-863] , what is its reported Anti-CD28 Fab (SEQ ID NOs: 696, 697) signal?
Given back: 1.73

Asked: For YCSGHSAEYMLKCL (Peptide-87 library clone, tested as clonal phage (peptide fused to pIII)) [Phage-861] , what is its reported Anti-CD28 Fab (SEQ ID NOs: 696, 697) signal?
Given back: 1.73

Asked: For YCEGHAIEYLAKCL (Peptide-87 library clone, tested as clonal phage (peptide fused to pIII)) [Phage-859] , what is its reported Anti-CD28 Fab (SEQ ID NOs: 696, 697) signal?
Given back: 1.74

Asked: For YCDGHAEKYMQKCL (Peptide-87 library clone, tested as clonal phage (peptide fused to pIII)) [Phage-858] , what is its reported Anti-CD28 Fab (SEQ ID NOs: 696, 697) signal?
Given back: 1.74

Asked: For YCEGHLQTYMAKCL (Peptide-87 library clone, tested as clonal phage (peptide fused to pIII)) [Phage-864] , what is its reported Anti-CD28 Fab (SEQ ID NOs: 696, 697) signal?
Given back: 1.73

Asked: For YCSGHLPEYMQKCL (Peptide-87 library clone, tested as clonal phage (peptide fused to pIII)) [Phage-853] , what is its reported Anti-CD28 Fab (SEQ ID NOs: 696, 697) signal?
Given back: 1.75

Asked: For YCDGHYPEYMSKCL (Peptide-87 library clone, tested as clonal phage (peptide fused to pIII)) [Phage-856] , what is its reported Anti-CD28 Fab (SEQ ID NOs: 696, 697) signal?
Given back: 1.75

Asked: For YCEGHSAEYMEKCL (Peptide-87 library clone, tested as clonal phage (peptide fused to pIII)) [Phage-860] , what is its reported Anti-CD28 Fab (SEQ ID NOs: 696, 697) signal?
Given back: 1.73

Asked: For YCEGHLPEYMQKCL (Peptide-87 library clone, tested as clonal phage (peptide fused to pIII)) [Phage-854] , what is its reported Anti-CD28 Fab (SEQ ID NOs: 696, 697) signal?
Given back: 1.75

Measured values drawn from patent US20260242478A1 for this set.
